# STUDY SYSTEM: human CD3 on Jurkat cells (human)
# Sequence (chain, as listed by the source, chain 1 of 2): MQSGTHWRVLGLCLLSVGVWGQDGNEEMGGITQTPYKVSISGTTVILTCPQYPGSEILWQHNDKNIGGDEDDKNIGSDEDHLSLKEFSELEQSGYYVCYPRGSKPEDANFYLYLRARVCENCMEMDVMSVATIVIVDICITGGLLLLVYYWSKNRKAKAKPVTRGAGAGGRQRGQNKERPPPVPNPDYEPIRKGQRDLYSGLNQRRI
# Sequence (chain, as listed by the source, chain 2 of 2): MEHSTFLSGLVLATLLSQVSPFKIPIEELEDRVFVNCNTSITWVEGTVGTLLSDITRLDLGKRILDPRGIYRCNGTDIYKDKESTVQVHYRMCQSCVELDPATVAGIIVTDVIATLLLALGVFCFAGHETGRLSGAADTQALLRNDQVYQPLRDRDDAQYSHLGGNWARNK
# MEASUREMENT DESCRIPTION: FACS
QUANTITY KIND: EC50

1) H1H5764P (antibody, V domains shown) VH: QVQLVESGGGVVQPGRSLRLSCAASGFTFRSFGMHWVRQAPGKGLEWVAVISYDGNYKYYADSVKGRFTISRDNSKNTLYLQMNSLRAEDTAVHYCAKGAMVRGVPYNFYYGMDVWGQGTTVTVSS VL: DIQMTQSPSSLSASVGDRVTITCRASQVIRNDLGWYQQKPGKAPKRLIYAASSLQSGIPSRFSGSGSGTEFTLTISSLQPEDFATYYCLQHNSYPYTFGQGTKLEIK ... 0.88 nM
2) H1H5769P (antibody, V domains shown) VH: EVQLVESGGGLVQPGRSLRLSCAASGFTFDDYTMHWVRQVPGKGLEWISGISWNSGSMDYADSVKGRFTISRDNARNSLFLQMNSVRTEDTALYYCAKDKSGYGSFYYGMDVWGQGTTVTVSS VL: EIVLTQSPGTLSLSPGDRATLSCRASQSVSSIYLAWYQQKPGQAPRLLIHGASTRATGIPDRFSGSGSGTDFTLTISRLEPEDFAVYYCQQRAHSPYTFGQGTKLEIK ... 4.1 nM
3) H1H5758B (antibody, V domains shown) VH: EVQLVESGGGVVQPGRSLRLSCAASGFTFSSYGMHWVRQAPGKGLEWVTVILHDGSNRYYADSVKGRFTISRDNSKNTLYLQMNILRAEDTAVYYCTKGAMVRGVPYNHYYGMDVWGQGTTVTVSS VL: DIVMTQSPSSLSASVGDRVTITCRASQGIRNDLGWYQQKPGKAPKRLIYAASNLQSGVPSRFSGSGSGTEFTLTISSLQPEDFATYYCLQHNSYPYTFGQGTKLEIKR ... 1.9 nM
